- tested-target: Human Thrombin (Homo sapiens)
- procedure-text: Inhibition of the amidase activity of thrombin (Kass)
- Format: biochemical
- run-parameters: chromogenic substrate N-benzoyl-Phe-Val-Arg-p-nitroanilide; mean over range of concentrations
Counter-ions that a name gives are not always drawn.
Measured Kass × 10^6 (L/mole) Human Thrombin, listed per entry.

Worked examples, 10 molecules total:
CCS(=O)(=O)N[C@H](CC1CCCCC1)C(=O)N1CCC[C@H]1C(=O)NCc1ccc(CN)cc1 ... 5.3 × 10^6 L/mole
NCc1ccc(CNC(=O)[C@@H]2CCCN2C(=O)[C@@H](CC2CCCCC2)NCC(=O)O)cc1 ... 11 × 10^6 L/mole
CCS(=O)(=O)N[C@H](Cc1ccccc1)C(=O)N1CCC[C@H]1C(=O)NCCc1cccc(N=C(N)N)c1.Cl ... 0.02 × 10^6 L/mole
Cl.NCc1cccc(CNC(=O)[C@@H]2CCCN2C(=O)[C@H](N)Cc2ccccc2)c1 [Example 11, D-Phe-Pro-m-NHCH2 C6 H4 CH2 NH2.HCl] ... 0.064 × 10^6 L/mole
N=C(N)NCCCNC(=O)[C@@H]1CCCN1C(=O)[C@H](N)Cc1ccccc1 [Example 7, D-Phe-Pro-NH(CH2)3 NHC(NH)NH2.HCl] ... 1.9 × 10^6 L/mole
Cl.N=C(N)C1=CNC(CNC(=O)[C@@H]2CCCN2C(=O)[C@@H](CC2CCCCC2)NCC(=O)O)CC1 (some centres unmarked) ... 600 × 10^6 L/mole
Cl.N=C(N)c1cc(F)c(CNC(=O)[C@@H]2CCCN2C(=O)[C@@H](CC2CCCCC2)NCC(=O)O)c(F)c1 ... 2,300 × 10^6 L/mole
N=C(N)c1ccc(CNC(=O)[C@@H]2C[C@@H]3CCCC[C@@H]3N2C(=O)[C@H]2C[C@H]3CCCC[C@H]3CN2)cc1 (relative stereo) ... 1.4 × 10^6 L/mole
Cl.N=C(N)c1ccc(CNC(=O)[C@@H]2CCCN2C(=O)[C@@H](CC2CCCCC2)NCCC(=O)O)cc1 ... 700 × 10^6 L/mole
Cl.Nc1cc(CNC(=O)[C@@H]2CCCN2C(=O)[C@@H](CC2CCCCC2)NCC(=O)O)ccn1 ... 28 × 10^6 L/mole

Prompt: Name the reported Kass × 10^6 (L/mole) Human Thrombin value associated with the molecule `N=C(N)c1ccc(CNC(=O)[C@@H]2CCCN2C(=O)[C@@H](CC2CCCCC2)NCC(=O)O)nc1`
Response: 120 × 10^6 L/mole

Prompt: Name the reported Kass × 10^6 (L/mole) Human Thrombin value associated with the molecule `Cl.N=C(N)c1ccc(CNC(=O)[C@@H]2CCCN2C(=O)[C@@H](CC2CCCCC2)NCC(=O)O)nn1`
Response: 340 × 10^6 L/mole

Prompt: Name the reported Kass × 10^6 (L/mole) Human Thrombin value associated with the molecule `Cl.Nc1ccc(CCNC(=O)[C@@H]2CCCN2C(=O)[C@@H](CC2CCCCC2)NCC(=O)O)cn1`
Response: 0.45 × 10^6 L/mole

Prompt: Name the reported Kass × 10^6 (L/mole) Human Thrombin value associated with the molecule `CCS(=O)(=O)N[C@H](Cc1ccccc1)C(=O)N1CCC[C@H]1C(=O)NCc1cccc(NC(=N)N)c1`
Response: 0.06 × 10^6 L/mole

###

Measured Kass × 10^6 (L/mole) Trypsin, listed per entry.
- tested-target: Bovine trypsin (Bos taurus, UniProt P00760)
- Construct: Bovine trypsin is purchased from Worthington Biochemicals; purchased Worthington Biochemicals, Freehold, N.J
- Sequence (P00760 24-246): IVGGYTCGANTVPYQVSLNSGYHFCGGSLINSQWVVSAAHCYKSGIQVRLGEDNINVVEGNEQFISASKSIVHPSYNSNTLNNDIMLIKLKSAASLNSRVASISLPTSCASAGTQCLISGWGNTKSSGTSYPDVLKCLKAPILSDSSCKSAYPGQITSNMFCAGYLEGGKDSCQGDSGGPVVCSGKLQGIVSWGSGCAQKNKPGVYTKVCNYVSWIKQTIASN
- procedure-text: Kass, trypsin chromogenic substrate assay
- Assay type: biochemical
- run-parameters: substrate N-Benzoyl-Phe-Val-Arg-p-nitroanilide
Structures can show the parent of a compound that is named as a salt.

Prompt: Name the reported Kass × 10^6 (L/mole) Trypsin value associated with the compound NCC1CCC(CNC(=O)[C@@H]2CCCN2C(=O)[C@@H](CC2CCCCC2)NCC(=O)O)CC1 (stereo partly shown) [Example 79]
Response: 0.24 × 10^6 L/mole

Prompt: Name the reported Kass × 10^6 (L/mole) Trypsin value associated with the compound N=C(N)c1cccc(CNC(=O)[C@@H]2CCCN2C(=O)[C@@H]2NCC[C@@H]3CCCC[C@@H]32)c1 [Example 25, D-1-Piq-Pro-m-NHCH2 -C6 H4 C(=NH)NH2.HCl]
Response: 0.01 × 10^6 L/mole
